Every entry's value here was drawn from patent US20160244497A1.

Below: a set of entries, each annotated with reported EC50, ELK-luciferase assay.
Biological target: beta-klotho
Test: cell-based or functional assay
Only the number, expressed in nM, is required.

[in] Recorded EC50, ELK-luciferase assay for PEGylated FGF21 mutant R175C (ligand, 20 kDa methoxy-PEG-maleimide on Cys 175) MHPIPDSSPLLQFGGQVRQRYLYTDDAQQTEAHLEIREDGTVGGAADQSPESLLQLKALKPGVIQILGVKTSRFLCQRPDGALYGSLHFDPEACSFRELLLEDGYNVYQSEAHGLPLHLPGNKSPHRDPAPRGPARFLPLPGLPPAPPEPPGILAPQPPDVGSSDPLSMVGPSQGCSPSYAS , please?
[out] 7.9

[in] Okay, and PEGylated FGF21 mutant E91C (ligand, 20 kDa methoxy-PEG-maleimide on Cys 91) MHPIPDSSPLLQFGGQVRQRYLYTDDAQQTEAHLEIREDGTVGGAADQSPESLLQLKALKPGVIQILGVKTSRFLCQRPDGALYGSLHFDPCACSFRELLLEDGYNVYQSEAHGLPLHLPGNKSPHRDPAPRGPARFLPLPGLPPAPPEPPGILAPQPPDVGSSDPLSMVGPSQGRSPSYAS ?
[out] 8.3

[in] Okay, and PEGylated FGF21 mutant N121C (ligand, 20 kDa methoxy-PEG-maleimide on Cys 121) MHPIPDSSPLLQFGGQVRQRYLYTDDAQQTEAHLEIREDGTVGGAADQSPESLLQLKALKPGVIQILGVKTSRFLCQRPDGALYGSLHFDPEACSFRELLLEDGYNVYQSEAHGLPLHLPGCKSPHRDPAPRGPARFLPLPGLPPAPPEPPGILAPQPPDVGSSDPLSMVGPSQGRSPSYAS ?
[out] 9.2

[in] Okay, and PEGylated FGF21 mutant D79C (ligand, 20 kDa methoxy-PEG-maleimide on Cys 79) MHPIPDSSPLLQFGGQVRQRYLYTDDAQQTEAHLEIREDGTVGGAADQSPESLLQLKALKPGVIQILGVKTSRFLCQRPCGALYGSLHFDPEACSFRELLLEDGYNVYQSEAHGLPLHLPGNKSPHRDPAPRGPARFLPLPGLPPAPPEPPGILAPQPPDVGSSDPLSMVGPSQGRSPSYAS ?
[out] 20.4

[in] Okay, and PEGylated FGF21 mutant G113C (ligand, 20 kDa methoxy-PEG-maleimide on Cys 113) MHPIPDSSPLLQFGGQVRQRYLYTDDAQQTEAHLEIREDGTVGGAADQSPESLLQLKALKPGVIQILGVKTSRFLCQRPDGALYGSLHFDPEACSFRELLLEDGYNVYQSEAHCLPLHLPGNKSPHRDPAPRGPARFLPLPGLPPAPPEPPGILAPQPPDVGSSDPLSMVGPSQGRSPSYAS ?
[out] 12

[in] Okay, and PEGylated FGF21 mutant G120C (ligand, 20 kDa methoxy-PEG-maleimide on Cys 120) MHPIPDSSPLLQFGGQVRQRYLYTDDAQQTEAHLEIREDGTVGGAADQSPESLLQLKALKPGVIQILGVKTSRFLCQRPDGALYGSLHFDPEACSFRELLLEDGYNVYQSEAHGLPLHLPCNKSPHRDPAPRGPARFLPLPGLPPAPPEPPGILAPQPPDVGSSDPLSMVGPSQGRSPSYAS ?
[out] 6
